Values from patent US20120165304A1

TEST TARGET: human 5-HT2C receptor (Homo sapiens, UniProt P28335, I156V/I160V/N158S)
Sequence (P28335 33-458 I156V/N158S/I160V limits assumed): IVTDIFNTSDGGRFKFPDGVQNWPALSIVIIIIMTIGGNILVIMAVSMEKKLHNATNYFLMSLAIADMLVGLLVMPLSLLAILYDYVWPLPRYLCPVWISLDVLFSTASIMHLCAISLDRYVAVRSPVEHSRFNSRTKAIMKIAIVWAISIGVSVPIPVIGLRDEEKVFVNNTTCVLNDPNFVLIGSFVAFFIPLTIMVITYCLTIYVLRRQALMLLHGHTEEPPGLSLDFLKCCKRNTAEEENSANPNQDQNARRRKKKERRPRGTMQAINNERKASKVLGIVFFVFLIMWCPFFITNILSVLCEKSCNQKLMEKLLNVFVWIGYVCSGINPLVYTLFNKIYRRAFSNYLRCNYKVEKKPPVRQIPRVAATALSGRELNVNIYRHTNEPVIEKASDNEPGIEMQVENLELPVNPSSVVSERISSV
ASSAY SUMMARY: cell-based
pEC50: −log10 of the molar value.
In this section we review reported pEC50 values for a set of compounds.
MEASURED METRIC: pEC50

COMPOUND: O=C(C1CN(c2c3c(nc4ccnn24)CCNCC3)C1)N1CCC(c2cc(Cl)cc(Cl)c2)CC1 [Example 31.214]
TEST TARGET: human 5-HT2C receptor (Homo sapiens, UniProt P28335, I156V/I160V/N158S)
MEASURED METRIC: pEC50
OBSERVED VALUE: 6.33

COMPOUND: O=C(C1CN(c2c3c(nc4ccnn24)CCNCC3)C1)N1CCc2c(cccc2C(F)(F)F)C1 [Example 31.102]
TEST TARGET: human 5-HT2C receptor (Homo sapiens, UniProt P28335, I156V/I160V/N158S)
MEASURED METRIC: pEC50
OBSERVED VALUE: 7.44

COMPOUND: COc1ccc2ccc(OC3CN(c4c5c(nc6ccnn46)CCNCC5)C3)cc2c1 [Example 35.11]
TEST TARGET: human 5-HT2C receptor (Homo sapiens, UniProt P28335, I156V/I160V/N158S)
MEASURED METRIC: pEC50
OBSERVED VALUE: 6.03

COMPOUND: c1cc2nc3c(c(N4CCCCCC4)n2n1)CCNCC3 [Example 7.5]
TEST TARGET: human 5-HT2C receptor (Homo sapiens, UniProt P28335, I156V/I160V/N158S)
MEASURED METRIC: pEC50
OBSERVED VALUE: 6.23

COMPOUND: O=C(C1CN(c2c3c(nc4ccnn24)CCNCC3)C1)N1CCN(Cc2ccc(F)cc2)CC1 [Example 37.23]
TEST TARGET: human 5-HT2C receptor (Homo sapiens, UniProt P28335, I156V/I160V/N158S)
MEASURED METRIC: pEC50
OBSERVED VALUE: 8.22

COMPOUND: c1cncc(OC2CN(c3c4c(nc5ccnn35)CCNCC4)C2)c1 [Example 35.42]
TEST TARGET: human 5-HT2C receptor (Homo sapiens, UniProt P28335, I156V/I160V/N158S)
MEASURED METRIC: pEC50
OBSERVED VALUE: 6.67

COMPOUND: c1ccc2cc(OC3CN(c4c5c(nc6ccnn46)CCNCC5)C3)ccc2c1 [Example 35.46]
TEST TARGET: human 5-HT2C receptor (Homo sapiens, UniProt P28335, I156V/I160V/N158S)
MEASURED METRIC: pEC50
OBSERVED VALUE: 6.31

COMPOUND: O=C(C1CN(c2c3c(nc4ccnn24)CCNCC3)C1)N1CCc2sccc2C1 [Example 31.36]
TEST TARGET: human 5-HT2C receptor (Homo sapiens, UniProt P28335, I156V/I160V/N158S)
MEASURED METRIC: pEC50
OBSERVED VALUE: 7.24

COMPOUND: CCn1c(C2CN(c3c4c(nc5ccnn35)CCNCC4)C2)nc2ccccc21 [Example 34.2]
TEST TARGET: human 5-HT2C receptor (Homo sapiens, UniProt P28335, I156V/I160V/N158S)
MEASURED METRIC: pEC50
OBSERVED VALUE: 6.82

COMPOUND: O=C(NCC1CCCC1)C1CN(c2c3c(nc4ccnn24)CCNCC3)C1 [Example 37.103]
TEST TARGET: human 5-HT2C receptor (Homo sapiens, UniProt P28335, I156V/I160V/N158S)
MEASURED METRIC: pEC50
OBSERVED VALUE: 7.17

COMPOUND: O=C(C1CN(c2c3c(nc4ccnn24)CCNCC3)C1)N1CCC(c2ccccc2F)C1 (stereo not shown) [Example 31.116]
TEST TARGET: human 5-HT2C receptor (Homo sapiens, UniProt P28335, I156V/I160V/N158S)
MEASURED METRIC: pEC50
OBSERVED VALUE: 7.22

COMPOUND: CN1CCN(C(=O)C2CN(c3c4c(nc5ccnn35)CCNCC4)C2)CC1=O [Example 37.100]
TEST TARGET: human 5-HT2C receptor (Homo sapiens, UniProt P28335, I156V/I160V/N158S)
MEASURED METRIC: pEC50
OBSERVED VALUE: 7.85

COMPOUND: CN1CCc2nc3ccnn3c(N3CC(C(=O)NC4CC(C)(C)N(C)C(C)(C)C4)C3)c2CC1 [Example 36.25]
TEST TARGET: human 5-HT2C receptor (Homo sapiens, UniProt P28335, I156V/I160V/N158S)
MEASURED METRIC: pEC50
OBSERVED VALUE: 6.69

COMPOUND: CC#CCNC(=O)C1CN(c2c3c(nc4ccnn24)CCNCC3)C1 [Example 37.105]
TEST TARGET: human 5-HT2C receptor (Homo sapiens, UniProt P28335, I156V/I160V/N158S)
MEASURED METRIC: pEC50
OBSERVED VALUE: 6.86

COMPOUND: O=C(NCC1CCCCCC1)C1CN(c2c3c(nc4ccnn24)CCNCC3)C1 [Example 37.68]
TEST TARGET: human 5-HT2C receptor (Homo sapiens, UniProt P28335, I156V/I160V/N158S)
MEASURED METRIC: pEC50
OBSERVED VALUE: 7.41

COMPOUND: CC1(C(=O)N2CCC(c3ccccc3F)CC2)CN(c2c3c(nc4ccnn24)CCNCC3)C1 [Example 32.6]
TEST TARGET: human 5-HT2C receptor (Homo sapiens, UniProt P28335, I156V/I160V/N158S)
MEASURED METRIC: pEC50
OBSERVED VALUE: 5.56

COMPOUND: CN(Cc1ccc(Cl)cc1)C(=O)C1CN(c2c3c(nc4ccnn24)CCNCC3)C1 [Example 31.40]
TEST TARGET: human 5-HT2C receptor (Homo sapiens, UniProt P28335, I156V/I160V/N158S)
MEASURED METRIC: pEC50
OBSERVED VALUE: 7.40

COMPOUND: O=C(C1CN(c2c3c(nc4ccnn24)CCNCC3)C1)N1CCCC(Cc2ccc(F)cc2)C1 (stereo not shown) [Example 31.101]
TEST TARGET: human 5-HT2C receptor (Homo sapiens, UniProt P28335, I156V/I160V/N158S)
MEASURED METRIC: pEC50
OBSERVED VALUE: 7.21

COMPOUND: O=C(C1CN(c2c3c(nc4ccnn24)CCNCC3)C1)N1CC[C@H](F)C1 [Example 31.202]
TEST TARGET: human 5-HT2C receptor (Homo sapiens, UniProt P28335, I156V/I160V/N158S)
MEASURED METRIC: pEC50
OBSERVED VALUE: 6.79

COMPOUND: CC(C)(C)CCNC(=O)C1CN(c2c3c(nc4ccnn24)CCNCC3)C1 [Example 37.83]
TEST TARGET: human 5-HT2C receptor (Homo sapiens, UniProt P28335, I156V/I160V/N158S)
MEASURED METRIC: pEC50
OBSERVED VALUE: 7.29

COMPOUND: CC(C)=CCN1CCC(NC(=O)C2CN(c3c4c(nc5ccnn35)CCNCC4)C2)CC1 [Example 43]
TEST TARGET: human 5-HT2C receptor (Homo sapiens, UniProt P28335, I156V/I160V/N158S)
MEASURED METRIC: pEC50
OBSERVED VALUE: 8.10

COMPOUND: CN1CCc2nc3ccnn3c(N3CC(C(=O)NCCC4CCCC4)C3)c2CC1 [Example 36.46]
TEST TARGET: human 5-HT2C receptor (Homo sapiens, UniProt P28335, I156V/I160V/N158S)
MEASURED METRIC: pEC50
OBSERVED VALUE: 6.84

COMPOUND: CC(=O)NC1CCN(C(=O)C2CN(c3c4c(nc5ccnn35)CCN(C)CC4)C2)CC1 [Example 36.28]
TEST TARGET: human 5-HT2C receptor (Homo sapiens, UniProt P28335, I156V/I160V/N158S)
MEASURED METRIC: pEC50
OBSERVED VALUE: 6.42

COMPOUND: CC1(NC(=O)C2CN(c3c4c(nc5ccnn35)CCNCC4)C2)CCCC1 [Example 37.80]
TEST TARGET: human 5-HT2C receptor (Homo sapiens, UniProt P28335, I156V/I160V/N158S)
MEASURED METRIC: pEC50
OBSERVED VALUE: 6.91

COMPOUND: c1csc(COC2CN(c3c4c(nc5ccnn35)CCNCC4)C2)n1 [Example 20.14]
TEST TARGET: human 5-HT2C receptor (Homo sapiens, UniProt P28335, I156V/I160V/N158S)
MEASURED METRIC: pEC50
OBSERVED VALUE: 7.64

COMPOUND: CCCCN1CCN(C(=O)C2CN(c3c4c(nc5ccnn35)CCNCC4)C2)CC1 [Example 37.25]
TEST TARGET: human 5-HT2C receptor (Homo sapiens, UniProt P28335, I156V/I160V/N158S)
MEASURED METRIC: pEC50
OBSERVED VALUE: 8.52

COMPOUND: O=C(NC1(c2ccc(F)cc2)CC1)C1CN(c2c3c(nc4ccnn24)CCNCC3)C1 [Example 31.93]
TEST TARGET: human 5-HT2C receptor (Homo sapiens, UniProt P28335, I156V/I160V/N158S)
MEASURED METRIC: pEC50
OBSERVED VALUE: 6.10

COMPOUND: O=C(C1CN(c2c3c(nc4ccnn24)CCNCC3)C1)N1CCC(c2ccccc2F)CC1 [Example 31.113]
TEST TARGET: human 5-HT2C receptor (Homo sapiens, UniProt P28335, I156V/I160V/N158S)
MEASURED METRIC: pEC50
OBSERVED VALUE: 7.57

COMPOUND: COc1ccc2c(c1)CCN2C(=O)C1CN(c2c3c(nc4ccnn24)CCNCC3)C1 [Example 31.218]
TEST TARGET: human 5-HT2C receptor (Homo sapiens, UniProt P28335, I156V/I160V/N158S)
MEASURED METRIC: pEC50
OBSERVED VALUE: 7.40

COMPOUND: FC(F)(F)c1ccnc(OC2CN(c3c4c(nc5ccnn35)CCNCC4)C2)c1 [Example 20.9]
TEST TARGET: human 5-HT2C receptor (Homo sapiens, UniProt P28335, I156V/I160V/N158S)
MEASURED METRIC: pEC50
OBSERVED VALUE: 7.08

COMPOUND: COC[C@@H]1CCN1c1c2c(nc3ccnn13)CCNCC2 [Example 8]
TEST TARGET: human 5-HT2C receptor (Homo sapiens, UniProt P28335, I156V/I160V/N158S)
MEASURED METRIC: pEC50
OBSERVED VALUE: 6.57

COMPOUND: Cc1ccccc1OCC1CN(c2c3c(nc4ccnn24)CCNCC3)C1 [Example 15.1]
TEST TARGET: human 5-HT2C receptor (Homo sapiens, UniProt P28335, I156V/I160V/N158S)
MEASURED METRIC: pEC50
OBSERVED VALUE: 8.22

COMPOUND: Cc1ccc2c(c1)CCCN2C(=O)C1CN(c2c3c(nc4ccnn24)CCNCC3)C1 [Example 31.190]
TEST TARGET: human 5-HT2C receptor (Homo sapiens, UniProt P28335, I156V/I160V/N158S)
MEASURED METRIC: pEC50
OBSERVED VALUE: 8.40

COMPOUND: Clc1ccccc1OCC1CN(c2c3c(nc4ccnn24)CCNCC3)C1 [Example 15.6]
TEST TARGET: human 5-HT2C receptor (Homo sapiens, UniProt P28335, I156V/I160V/N158S)
MEASURED METRIC: pEC50
OBSERVED VALUE: 8.30
